src = patent US20200283478A1

Give measured IC50 for each item. Keep answers brief.
Target Under Test: T1, His-tagged PCSK9Δhelix (human, UniProt Q8NBP7 31-152; Q8NBP7 168-692)
T1 construct: Construct M1-Q692 with engineered TEV site, cut by TEV protease; new N-terminus of the catalytic domain is S-A168; also called His-PCSK9Δhelix
T1 sequence (Q8NBP7 31-152, stated change not applied, chain 1 of 2): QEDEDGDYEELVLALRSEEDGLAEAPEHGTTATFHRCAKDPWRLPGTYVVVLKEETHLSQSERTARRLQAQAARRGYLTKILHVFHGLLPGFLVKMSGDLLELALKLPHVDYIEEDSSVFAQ
T1 sequence (Q8NBP7 other isoform, or with tags, fused parts or gaps mutant, chain 2 of 2): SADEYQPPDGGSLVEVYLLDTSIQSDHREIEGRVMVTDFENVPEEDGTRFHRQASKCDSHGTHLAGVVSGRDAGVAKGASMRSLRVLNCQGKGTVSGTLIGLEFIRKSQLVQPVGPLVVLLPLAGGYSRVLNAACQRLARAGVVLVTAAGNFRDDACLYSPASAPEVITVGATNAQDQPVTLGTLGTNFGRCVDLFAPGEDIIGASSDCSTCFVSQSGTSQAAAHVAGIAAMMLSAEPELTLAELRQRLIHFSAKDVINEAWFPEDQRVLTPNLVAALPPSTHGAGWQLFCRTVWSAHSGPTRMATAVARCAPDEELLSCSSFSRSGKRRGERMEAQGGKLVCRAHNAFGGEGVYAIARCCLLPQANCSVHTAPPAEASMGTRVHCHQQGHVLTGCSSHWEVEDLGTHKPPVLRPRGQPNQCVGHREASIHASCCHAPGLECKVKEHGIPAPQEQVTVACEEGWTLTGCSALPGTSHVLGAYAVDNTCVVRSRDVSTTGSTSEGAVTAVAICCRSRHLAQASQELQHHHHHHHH
Protocol Details: TR-FRET competition; His-PCSK9Δhelix, competitor Ab20
Ends that are not written are not given here.
Answers are plain numbers, in µM.

# batch size: 2; output IC50 per entry
1. Ac-DSYPGWNLVRIGLLR-NH2 [Compound 155]
2. WNLVRIGLLR (also: further groups not given here, Structure printed only as a drawing) [Compound 141]

Result ::
1. 50
2. 36
